The reported measurements were obtained from PubChem BioAssay (NCI).

Reported growth values follow for various molecules
# Test system: BT-549 breast
# TEST NAME: NCI-60 one-dose screen, 48 h (100 = growth as untreated, 0 = no growth, -100 = all killed)
# CONDITIONS: 10 µM unless noted
This is part of a sample that, as a whole, favours compounds with a hit. Of some 83,000 tested, about 20% had one in any assay.
REPORTED ENDPOINT: growth (%)

molecule=O=C(CN1CCN(c2cc3c(cc2F)c(=O)c(C(=O)O)cn3C2CC2)CC1)N/N=C/c1ccco1 target_or_system="BT-549 breast" result_value=95.2
molecule=COc1ccc(/C=C(/c2ccccc2)[N+](=O)[O-])c(OC)c1 target_or_system="BT-549 breast" result_value=-17.7
molecule=CCN(CC)CCN1C(=O)c2c(c(C)c3c(oc4ccc(O)cc43)c2C)C1=O target_or_system="BT-549 breast" result_value=105
molecule=O=C1/C(=C2\SC(=S)N(C3CC3)C2=O)SC(=S)N1C1CC1 target_or_system="BT-549 breast" result_value=97.5
molecule=CCCCCCCCCCCCCOC(=O)c1c(C)[nH]c(/C=C2\N=C(c3ccc[nH]3)C=C2OC)c1C target_or_system="BT-549 breast" result_value=51.5
molecule="CNC1=C([N+](=O)[O-])C(c2ccc(OC)cc2)C(C#N)=C(c2cccs2)O1 (stereo not given)" target_or_system="BT-549 breast" result_value=117
molecule=CCNc1nc(O)c(/C=C2\C=Nc3ncccc32)s1 target_or_system="BT-549 breast" result_value=-50.4
molecule=C=C(c1ccc(OC)c(/C=C/C(=O)c2ccc3c(c2)OCO3)c1)c1cc(OC)c(OC)c(OC)c1 target_or_system="BT-549 breast" result_value=12.7
molecule=C=C(C)[C@@H]1CC[C@]2(COC(C)=O)CC[C@]3(C)[C@H](CC[C@@H]4[C@@]5(C)CCCN(C(C)=O)C(C)(C)[C@@H]5CC[C@]43C)[C@@H]12 target_or_system="BT-549 breast" result_value=88.6
molecule=CCOC(=O)/C=C1\S/C(=N\Nc2cc(=O)[nH]c3ccccc23)N(c2ccccc2)C1=O target_or_system="BT-549 breast" result_value=98.4
molecule=COc1cc(/C=C2\CN(S(=O)(=O)c3ccccc3)C/C(=C\c3cc(CN4CCCCC4)c(O)c(OC)c3)C2=O)cc(CN2CCCCC2)c1O target_or_system="BT-549 breast" result_value=-39.9
molecule=CC1(C)[C@@H](O[C@@H]2OC[C@@H](O[C@@H]3O[C@H](CO)[C@@H](O)[C@H](O)[C@H]3O[C@@H]3OC[C@@H](O)[C@H](O)[C@H]3O)[C@H](O)[C@H]2O[C@@H]2O[C@H](CO)[C@@H](O)[C@H](O)[C@H]2O)CC[C@]2(C)[C@H]3CC[C@]45OC[C@@]6(CC[C@](C)(C=O)C[C@H]64)[C@H](O)C[C@@]5(C)[C@]3(C)CC[C@@H]12 target_or_system="BT-549 breast" result_value=-94
molecule=COc1ccc(C(=S)N2CCN(c3ccc(Cl)cc3)CC2)cc1 target_or_system="BT-549 breast" result_value=95.4
molecule="N#CC1=C(N)Oc2ccc3ccccc3c2C1c1ccc([N+](=O)[O-])cc1 (stereo not given)" target_or_system="BT-549 breast" result_value=91.7
molecule=CC(=O)c1ccc(Nc2nccc(-c3ccc4ccccc4c3)n2)cc1 target_or_system="BT-549 breast" result_value=101
molecule=Cc1ccc(-c2nc(N3CCNCC3)c3oc(-c4ccc(C)cc4)nc3n2)cc1 target_or_system="BT-549 breast" result_value=83.4
molecule=Cc1cccc(Oc2ccc(Nc3ncnc4ccc(NC(=O)CN5CCN(C)CC5)cc34)cc2Cl)c1 target_or_system="BT-549 breast" result_value=70.3
molecule=O=C(CN1CCCCCC1)Nc1nc2ccc(NCc3ccc(Cl)cc3)cc2s1 target_or_system="BT-549 breast" result_value=92.6
molecule=CCCC(CC)(C(=O)Nc1ccc2nc(C)cc(N)c2c1)C(=O)Nc1ccc2nc(C)cc(N)c2c1 target_or_system="BT-549 breast" result_value=101
molecule=CC1(C)C(N)=Nc2cc(OCCCN3Cc4ccccc4C3)c(OCC3CC3)cc21 target_or_system="BT-549 breast" result_value=76.5
